Provide the recorded IC50 for the entries that follow.
biological target: AC1/CaM PPI (Homo sapiens); construct: human AC1 (hAC1) residues 1–1,118 were cloned; The hCaM residues 1–149, residues 1–1,248 of rat AC8 (rAC8); expressed in transfected cells; host or cells: HEK293T, transient transfection; assay: AC1/CaM NanoBiT assay in HEK293T cells; type: cell-based; details: HEK293T, thapsigargin-stimulated, AUC; read-out: Nanobit: AC1-CaM IC50 (μM ± SEM)
Counter-ions that a name gives are not always drawn.
Give bare numbers, in µM.

Consider the following illustrative entries.
Compound: CN(C(=O)CN(CCO)CC(=O)N(C)C(C)(C)Cc1ccccc1)C(C)(C)Cc1ccccc1
IC50 / µM: 40
--
Compound: [H]/N=C(\N/C(=N/[H])NCCCCCCNC(=N)NC(=N)Nc1ccc(Cl)cc1)Nc1ccc(Cl)cc1 [Compound 9, Chlorhexidine HCl]
IC50 / µM: 111
--
Compound: O=C1c2c(O)ccc(O)c2C(=O)c2c(NCCNCCO)ccc(NCCNCCO)c21 [Compound 11, Mitoxantrone HCl]
IC50 / µM: 44

Please report IC50 for every entry that follows.
1. CC1=C(CCC(=O)O)c2cc3[nH]c(cc4nc(cc5[nH]c(cc1n2)c(C)c5C(C)O)C(C)=C4C(C)O)c(C)c3CCC(=O)O (centres unmarked)
2. CCc1cc(C(c2cccs2)N2CCN(C)CC2)c(NC(=O)c2ccco2)s1 (centres unmarked)
3. Cc1cc2nc3ccc(N(C)C)cc3[s+]c2cc1N [Compound 1, Tolonium Chloride]
4. O=S(=O)(Nc1ccc2c(c1)N(S(=O)(=O)c1ccc(F)cc1)CCC2)c1cccc(F)c1
5. CNC(=O)C1=C(Nc2ccc(N(C)C)cc2)c2ccccc2S1(=O)=O

1: 38.4; 2: 26.1; 3: 32.9; 4: 16.1; 5: 63
